# studyTarget: Thioredoxin reductase (Homo sapiens, UniProt Q16881+Q9NNW7+Q86VQ6)
# protocolSummary: Inhibition of thioredoxin reductase
# Type: protein assay
Listing of recorded IC50 by entry.
Provide only the numeric value, understood in µM.

molecule: COc1ccc([Te]CC2O[C@@H]3O[C@@H]4C(CO)O[C@H](O[C@@H]5C(CO)O[C@H](O[C@@H]6C(CO)O[C@@H](O[C@@H]7C(CO)O[C@H](O[C@@H]8C(CO)O[C@H](O[C@@H]9C(CO)O[C@H](O[C@H]2C(O)C3O)C(O)C9O)C(O)C8O)C(O)C7O)C(O)C6O)C(O)C5O)C(O)C4O)cc1 (some centres undefined)
IC50 / µM: 1.6

molecule: CCCC[Te]CC1O[C@@H]2O[C@@H]3C(CO)O[C@H](O[C@@H]4C(CO)O[C@H](O[C@@H]5C(CO)O[C@@H](O[C@@H]6C(CO)O[C@H](O[C@@H]7C(CO)O[C@H](O[C@@H]8C(CO)O[C@H](O[C@H]1C(O)C2O)C(O)C8O)C(O)C7O)C(O)C6O)C(O)C5O)C(O)C4O)C(O)C3O (some centres undefined)
IC50 / µM: 18

molecule: OCC1O[C@@H]2O[C@@H]3C(C[Te]c4ccc(O)cc4)O[C@H](O[C@@H]4C(CO)O[C@H](O[C@@H]5C(CO)O[C@H](O[C@@H]6C(CO)O[C@@H](O[C@@H]7C(CO)O[C@H](O[C@@H]8C(CO)O[C@H](O[C@H]1C(O)C2O)C(O)C8O)C(O)C7O)C(O)C6O)C(O)C5O)C(O)C4O)C(O)C3O (some centres undefined)
IC50 / µM: 18

Inquiry: Item OCC1O[C@@H]2O[C@@H]3C(C[Te]c4ccccc4)O[C@H](O[C@@H]4C(CO)O[C@H](O[C@@H]5C(CO)O[C@H](O[C@@H]6C(CO)O[C@@H](O[C@@H]7C(CO)O[C@H](O[C@@H]8C(CO)O[C@H](O[C@H]1C(O)C2O)C(O)C8O)C(O)C7O)C(O)C6O)C(O)C5O)C(O)C4O)C(O)C3O (some centres undefined) has what recorded IC50?
Reply text: 1.6
